- System: ACHN
- experiment_notes: Cell line sensitivity (viability, ATPlite)
- Assay type: cell-based
- test_parameters: Homo sapiens, Kidney, BME media, 72 hours, read-out: Sensitivity to Example 1 (IC50)
quantity_measured: pIC50
Remember the convention: pIC50 equals -log10 of concentration in molar.

Input: Query (compound): `O=C(c1cc(C(F)(F)F)n[nH]1)N(Cc1ccc(O)cc1F)CC1CCC1` ; field requested: pIC50
Output: 7.00

###

- target_of_assay: PKM2 (Homo sapiens)
- Sequence (P14618 whole entry): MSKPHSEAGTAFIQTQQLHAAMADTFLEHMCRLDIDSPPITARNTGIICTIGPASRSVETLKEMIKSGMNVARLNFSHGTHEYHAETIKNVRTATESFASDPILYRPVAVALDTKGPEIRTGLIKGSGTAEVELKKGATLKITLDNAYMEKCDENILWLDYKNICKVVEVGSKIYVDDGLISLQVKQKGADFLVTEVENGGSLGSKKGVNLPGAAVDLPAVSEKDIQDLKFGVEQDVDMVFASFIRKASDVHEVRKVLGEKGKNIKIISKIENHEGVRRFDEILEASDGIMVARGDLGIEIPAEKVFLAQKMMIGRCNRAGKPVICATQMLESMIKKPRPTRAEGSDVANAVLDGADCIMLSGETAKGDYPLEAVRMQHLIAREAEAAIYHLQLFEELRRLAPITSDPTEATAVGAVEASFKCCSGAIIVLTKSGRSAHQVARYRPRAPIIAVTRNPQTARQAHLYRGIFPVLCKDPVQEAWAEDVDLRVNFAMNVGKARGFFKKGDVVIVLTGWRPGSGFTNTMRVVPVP
- experiment_notes: PKM2 Biochemical Assay
- test_parameters: % maximum response in a biochemical assay as compared with Fructose 1,6-bisphosphate
Measured Max. Resp. by item

compound	Max. Resp.
O=C(c1cc(C(F)(F)F)n[nH]1)N(Cc1ccc(O)cc1F)C1CCCCC1	100%
CN1CCC(CN(Cc2ccccc2F)C(=O)c2cc(C(F)(F)F)n[nH]2)CC1	29%
CC(c1ccccc1)N(CC1CCC1)C(=O)c1cc(C(F)(F)F)n[nH]1 (centres unmarked)	106%
COc1c(N)cccc1CN(CCN1CCCCCC1)C(=O)c1cc(C(F)(F)F)n[nH]1	100%

Input: Query (compound): `Nc1ccc(CN(CC2CCC2)C(=O)c2cc(C(F)(F)F)n[nH]2)c(Cl)c1` ; field requested: Max. Resp.
Output: 100%
